- ASSAY_REMARKS: Tmax in Syrian golden hamster at 100 mg/kg, po administered via gavage as single dose by HPLC-UV analysis
- Type: ADME, organism-based, Mesocricetus auratus
- Design: dose 100 mg/kg, route oral
- SETTINGS: in vivo
MEASUREMENT_LABEL: Tmax (min)
Provide only the numeric value, understood in min.

Exercise: Request the reported Tmax associated with CC(C)=CCCC1(C)C=Cc2c(ccc(C(=O)/C=C/c3cccnc3)c2O)O1 (stereo unspecified)
Key: 37.5

* * *

- ASSAY_REMARKS: Stability of the compound in simulated intestinal fluid assessed as compound degradation at 10 uM by HPLC-UV analysis
- Format: physicochemical
- SETTINGS: read-out: Drug degradation
MEASUREMENT_LABEL: degraded at 10 µM
I'd appreciate it if you wrote the number followed by its unit.

Exercise: Request the reported degraded at 10 µM associated with CC(C)=CCCC1(C)C=Cc2c(ccc(C(=O)/C=C/c3cccnc3)c2O)O1 (stereo unspecified)
Key: 30%
